test: maximum Plasma concentration in Rats was determined after Peroral administration
Assay type: ADME, organism-based
Parameters: route oral
particulars: rat, po
Collected Cmax values appear next to each entry.
Form entry: value (ng/mL) — number only.

molecule: CO/N=C1\CN(c2nc3c(cc2F)c(=O)c(C(=O)O)cn3C2CC2)CC1CN (stereo in doubt; 20) [GEMIFLOXACIN]
Cmax (ng/mL): 2440

Below: the item to evaluate.
Give me measured Cmax, please, for this molecule: NCC1CCN(c2nc3c(cc2F)c(=O)c(C(=O)O)cn3C2CC2)C1 (configuration not stated)
300

====

test: Area under curve was determined in Dogs after peroral administration
Type: ADME, organism-based, Canis lupus familiaris
particulars: dog, in vivo, po
recorded.metric: AUC (ng·h/mL)
Answer in ng·h/mL, number only, no unit symbol.

Given CO/N=C1\CN(c2nc3c(cc2F)c(=O)c(C(=O)O)cn3C2CC2)CC1CN (stereo in doubt; 20) [GEMIFLOXACIN] , respond with its AUC.
7550
